# system: G protein-coupled receptor 119 (GPR-119) (Mesocricetus auratus)
# Construct: hamster-derived β-cells containing G protein-coupled receptor 119 (GPR-119), HIT-T15 cells; host or cells: HIT-T15 (hamster pancreatic β-cells)
# assay-name: Evaluation of cAMP activity in HIT-T15 cells (HTRF cAMP dynamic kit)
# Format: cell-based, hamster
# condition-summary: cAMP activation, 1 h at 37° C., six concentrations, read-out: EC50
property: log10(EC50) (log10 of the value in nM)
The common logarithm of EC50 in nM is what is listed.

compound	log10(EC50)
CCN1CCN(C(=O)C2CC=C(c3ccc(OCC4CCN(C(=O)OC(C)(C)C)CC4)cc3)CC2)CC1 (stereo not shown)	1.57

Look up log10(EC50) for the entries below, preserving their order.
1. C[C@@H](O)CNC(=O)C1CC=C(c2ccc(OCC3CCN(C(=O)OC(C)(C)C)CC3)cc2F)CC1 (stereo partly shown)
2. CC(C)c1noc(N2CCC(COc3ccc(C4=CCC(C(=O)N5CCC[C@H]5CO)CC4)cc3)CC2)n1 (stereo partly shown)
3. CC(C)(C)OC(=O)N1CCC(COc2ccc(C3=CCC(C(=O)NC[C@@H](O)CO)CC3)nc2)CC1 (stereo partly shown)
4. C[C@H](O)CNC(=O)C1CC=C(c2ccc(OCC3CCN(C(=O)OC(C)(C)C)CC3)c(F)c2)CC1 (stereo partly shown)
5. CCN1CCN(C(=O)C2CC=C(c3ccc(OCC4CCN(c5nc(C(C)C)no5)CC4)cc3)CC2)CC1 (stereo not shown)
6. CC(C)c1noc(N2CCC(COc3ccc(C4=CCC(C(=O)N5CCc6ccccc6C5C)CC4)cc3)CC2)n1 (stereo not shown)

Result:
[2.11, 1.11, 2.70, 1.65, 1.69, 1.38]

* * *

# system: G protein-coupled receptor 119 (GPR-119) (Mesocricetus auratus)
# Construct: hamster-derived β-cells containing G protein-coupled receptor 119 (GPR-119), HIT-T15 cells; host or cells: HIT-T15 (hamster pancreatic β-cells)
# Sequence (A0A1U8CD06 1-334): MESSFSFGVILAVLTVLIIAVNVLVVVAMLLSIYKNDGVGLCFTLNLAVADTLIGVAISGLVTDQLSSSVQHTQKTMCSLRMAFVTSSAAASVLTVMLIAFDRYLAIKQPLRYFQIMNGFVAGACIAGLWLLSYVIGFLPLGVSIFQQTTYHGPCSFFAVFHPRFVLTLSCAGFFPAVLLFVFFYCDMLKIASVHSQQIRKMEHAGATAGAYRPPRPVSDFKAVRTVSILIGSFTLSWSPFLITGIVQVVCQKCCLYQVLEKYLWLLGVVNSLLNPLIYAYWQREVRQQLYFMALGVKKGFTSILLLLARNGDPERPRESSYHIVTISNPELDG
# assay-name: Evaluation of cAMP activity in HIT-T15 cells (HTRF cAMP dynamic kit)
# Assay type: cell-based, hamster
# condition-summary: cAMP activation, 1 h at 37° C., six concentrations, read-out: EC50
property: pEC50
Answers are plain numbers, as −log10 of the molar value.

Worked set:
molecule	pEC50
CC(C)c1noc(N2CCC(COc3ccc(C4=CCC(C(=O)N5CCSCC5)CC4)cc3F)CC2)n1 (stereo not drawn)	8.21
CC(C)(C)OC(=O)N1CCC(COc2ccc(C3=CCC(C(=O)N4CC[C@H](O)C4)CC3)cc2F)CC1 (stereo partly drawn)	7.89
CC(C)c1noc(N2CCC(COc3ccc(C4=CCC(C(=O)N5CCC[C@H]5C#N)CC4)cc3F)CC2)n1 (stereo partly drawn)	7.82
CC(C)c1noc(N2CCC(COc3ccc(C4=CCC(C(=O)NC[C@@H](C)O)CC4)nc3)CC2)n1 (stereo partly drawn)	6.35
CC(C)c1noc(N2CCC(COc3ccc(C4=CCC(C(=O)NC[C@H](C)O)CC4)nc3)CC2)n1 (stereo partly drawn)	6.46
C[C@@H](CO)NC(=O)C1CC=C(c2ccc(OCC3CCN(C(=O)OC(C)(C)C)CC3)cc2F)CC1 (stereo partly drawn)	7.05

Look up pEC50 for the entries below, preserving their order.
1. CC(C)c1noc(N2CCC(COc3ccc(C4=CCC(C(=O)N5CCC(=NO)CC5)CC4)cc3)CC2)n1 (stereo not drawn)
2. CC(C)(C)OC(=O)N1CCC(COc2ccc(C3=CCC(C(=O)N4CC[C@H](F)C4)CC3)cn2)CC1 (stereo partly drawn)
3. CN(CCCO)C(=O)C1CC=C(c2ccc(OCC3CCN(C(=O)OC(C)(C)C)CC3)cc2)CC1 (stereo not drawn)

Result:
7.54
7.55
7.42

Look up pEC50 for the entries below, preserving their order.
1. CCc1cnc(N2CCC(COc3ccc(C4=CCC(C(=O)NC(CO)CO)CC4)cc3)CC2)nc1 (stereo not drawn)
2. C[C@@H](O)CNC(=O)C1CC=C(c2ccc(OCC3CCN(C(=O)OC(C)(C)C)CC3)nc2)CC1 (stereo partly drawn)
3. CC(C)(C)OC(=O)N1CCC(COc2ccc(C3=CCC(C(=O)N4CCC(CCO)CC4)CC3)cc2)CC1 (stereo not drawn)
4. CC(C)c1noc(N2CCC(COc3ccc(C4=CCC(C(=O)N5CCSCC5)CC4)cc3)CC2)n1 (stereo not drawn)
5. CC(C)c1noc(N2CCC(COc3ccc(C4=CCC(C(=O)N5CCC(O)CC5)CC4)cc3)CC2)n1 (stereo not drawn)
6. CCc1cnc(N2CCC(COc3ccc(C4=CCC(C(=O)NCCF)CC4)cc3)CC2)nc1 (stereo not drawn)

Result:
6.43
6.51
7.64
8.21
7.57
7.15

Source: patent US9758527B2
